- System: SEM cells;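 note: ALL cell lines in 384-well plates, five doses spanning 10,000-fold, each plate scaled between vehicle and 100 µmol/L benzalkonium chloride controls, sDSS an adapted area-under-curve metric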
- Protocol Description: selective drug sensitivity score (sDSS, relative to normal bone marrow) (sDSS (score)); higher = more potent and effective on the cell line relative to normal bone marrow cells
- Condition Info: 72 h
Returns one of 1 (yes) or 0 (no); 1 (yes) when selective drug sensitivity score is >= 10.

Would you please look over these solved cases?
Molecule	Label Value
Cc1c2oc3c(C)ccc(C(=O)N[C@@H]4C(=O)N[C@H](C(C)C)C(=O)N5CCC[C@H]5C(=O)N(C)CC(=O)N(C)[C@@H](C(C)C)C(=O)O[C@@H]4C)c3nc-2c(C(=O)N[C@@H]2C(=O)N[C@H](C(C)C)C(=O)N3CCC[C@H]3C(=O)N(C)CC(=O)N(C)[C@@H](C(C)C)C(=O)O[C@@H]2C)c(N)c1=O [Dactinomycin] (top concentration 1000 nM)	1 (yes)
Cn1cc(CNCC2CCN(c3ncc(C(=O)NO)cn3)CC2)c2ccccc21 [Quisinostat] (top concentration 1000 nM)	0 (no)
CC1(C)CCC(CN2CCN(c3ccc(C(=O)NS(=O)(=O)c4ccc(NCC5CCOCC5)c([N+](=O)[O-])c4)c(Oc4cnc5[nH]ccc5c4)c3)CC2)=C(c2ccc(Cl)cc2)C1 [Venetoclax] (top concentration 1000 nM)	1 (yes)
Nc1ccccc1NC(=O)c1ccc(CNC(=O)OCc2cccnc2)cc1 [Entinostat] (top concentration 10000 nM)	1 (yes)

Please turn your attention to the following entry.
Quick check: does NC1(C(=O)N[C@@H](CCO)c2ccc(Cl)cc2)CCN(c2ncnc3[nH]ccc23)CC1 [AZD-5363] (top concentration 10000 nM) have selective drug sensitivity score greater than or equal to 10?
0 (no)

Values from the supplement of paper PMC8967900
